Tested on: CASKI
procedure-text: Primary qHTS to identify gynecologic anti-cancer compounds using libraries of approved drugs and bioactive compounds (AID 1345084); also: % is scaled to controls: 0 for no effect and ±100 for the full control effect; nearly all actives have a fitted effect of over 55% in size
protocol-conditions: Gynecologic cancer cell panel viability, ATPlite luminescence, 48 h; series mostly up to 57.5 µM
Excerpt: National Center for Advancing Translational Sciences [NCATS] Assay Overview: Chemotherapeutic drug responses vary from cancer to cancer and from patient to patient. […] ATPlite is a luminescence based assay reliant on the conversion of a luciferase substrate to light in the presence of ATP. As a cytotoxic compound will suppress growth and decrease the number of cells, the concentration of ATP will decrease, and less light signal will be detected in the well. […]
Records with an inconclusive call do not appear. Active and inactive are the calls of the source. Calls follow the shape of the dose curve; as a rule, active = well fitted cell-killing curve with a large enough effect; inconclusive = small, poorly fitted or top-dose-only effect, or effect the other way; inactive = flat fitted curve, though single readings scatter.
metric-name: activity change, negative = cytotoxicity

These recorded examples may help you get a feel for the data.
compound	metric-name	endpoint-result
CCC(C)(OC(C)=O)C(=O)O[C@H]1[C@H](OC(C)=O)C[C@@H]2[C@@](C)([C@@H]3C[C@H]4C=CO[C@H]4O3)[C@H](C)C[C@H](OC(C)=O)[C@@]2(COC(C)=O)[C@@]12CO2 (stereo not given in full)	activity change, negative = cytotoxicity	inactive
Cc1cccc(NC(=O)N[C@@H]2N=C(c3ccccc3)c3ccccc3N(C)C2=O)c1	activity change, negative = cytotoxicity	inactive
CC1=C2C[C@H]3[C@@H](CC=C4C[C@@H](O)CC[C@@]43C)[C@@H]2CC[C@]12O[C@@H]1C[C@H](C)CN[C@H]1[C@H]2C	activity change, negative = cytotoxicity	inactive
C/C=C(\C)C(=O)O[C@H]1[C@H](OC(C)=O)[C@]2(CO)[C@H](O)[C@H](O)[C@]3(C)C(=CCC4[C@@]5(C)CC[C@H](O[C@@H]6O[C@H](C(=O)O)[C@@H](O)[C@H](O[C@@H]7OC[C@H](O)[C@H](O[C@@H]8OC[C@H](O)[C@H](O)[C@H]8O)[C@H]7O)[C@H]6O[C@@H]6O[C@H](CO)[C@@H](O)[C@H](O)[C@H]6O)C(C)(C)C5CC[C@]43C)[C@@H]2CC1(C)C (stereo not given in full)	activity change, negative = cytotoxicity	13.6% [at 6.55 µM] (inactive)

Memo: CCCCCOc1cc2c(cc1-c1cc(/C=C/C(=O)O)ccc1O)C(C)(C)CCC2(C)C , reported activity change, negative = cytotoxicity: inactive

###

system-under-test: Voltage-gated inwardly rectifying potassium channel KCNH2 (Homo sapiens) (UniProt Q12809)
Sequence (Q12809 whole entry, looked up): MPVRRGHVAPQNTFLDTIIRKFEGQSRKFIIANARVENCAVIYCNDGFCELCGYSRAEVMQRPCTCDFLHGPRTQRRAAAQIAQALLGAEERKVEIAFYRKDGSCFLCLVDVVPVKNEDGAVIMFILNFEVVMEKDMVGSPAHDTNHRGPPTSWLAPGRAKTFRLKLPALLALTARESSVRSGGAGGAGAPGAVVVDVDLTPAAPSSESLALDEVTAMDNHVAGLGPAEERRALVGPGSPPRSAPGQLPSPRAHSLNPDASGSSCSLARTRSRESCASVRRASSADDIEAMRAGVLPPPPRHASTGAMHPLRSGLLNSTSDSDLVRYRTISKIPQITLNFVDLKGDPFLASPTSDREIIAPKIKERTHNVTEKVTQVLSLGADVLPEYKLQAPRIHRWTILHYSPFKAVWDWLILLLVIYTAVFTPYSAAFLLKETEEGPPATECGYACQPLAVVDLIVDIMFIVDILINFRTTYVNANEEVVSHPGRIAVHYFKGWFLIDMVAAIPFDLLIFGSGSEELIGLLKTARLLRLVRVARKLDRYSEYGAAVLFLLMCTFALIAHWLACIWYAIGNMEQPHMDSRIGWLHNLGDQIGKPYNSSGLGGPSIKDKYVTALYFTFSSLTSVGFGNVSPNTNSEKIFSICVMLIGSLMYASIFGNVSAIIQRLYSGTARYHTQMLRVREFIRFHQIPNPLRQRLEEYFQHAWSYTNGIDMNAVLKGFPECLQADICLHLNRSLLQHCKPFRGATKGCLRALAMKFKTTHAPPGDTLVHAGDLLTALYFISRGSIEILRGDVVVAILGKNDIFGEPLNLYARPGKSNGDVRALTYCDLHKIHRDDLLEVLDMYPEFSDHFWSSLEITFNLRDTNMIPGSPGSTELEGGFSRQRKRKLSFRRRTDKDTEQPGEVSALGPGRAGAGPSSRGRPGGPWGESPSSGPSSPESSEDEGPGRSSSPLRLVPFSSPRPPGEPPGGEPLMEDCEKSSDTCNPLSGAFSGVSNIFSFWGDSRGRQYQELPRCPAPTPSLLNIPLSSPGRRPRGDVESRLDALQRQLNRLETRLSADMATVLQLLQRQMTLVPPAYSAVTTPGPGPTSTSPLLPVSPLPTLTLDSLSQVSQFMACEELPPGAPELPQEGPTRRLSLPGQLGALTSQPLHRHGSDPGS
procedure-text: qHTS Assay for Small Molecule Inhibitors of the Human hERG Channel Activity (AID 588834);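 also: lower thallium flux fluorescence means stronger hERG block; nearly all actives have a fitted effect of over 50% in size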
protocol-conditions: U2OS BacMam hERG, FluxOR thallium flux fluorescence; series mostly up to 46.1 µM
Results filed as inconclusive are left out. Calls of active or inactive are those of the source. The call rests on the fitted dose curve; in most records, active means well fitted inhibition curve with a large enough effect; inconclusive means small, poorly fitted or top-dose-only effect; inactive means flat fitted curve, though single readings scatter.
// allowed return values: active, inactive

See these solved cases before continuing.
molecular-string	group-label
C[C@H]1CC[C@]2(NC1)O[C@H]1C[C@H]3[C@@H]4CC[C@H]5C[C@@H](O[C@@H]6O[C@H](CO)[C@H](O[C@@H]7O[C@H](CO)[C@@H](O)[C@H](O[C@@H]8OC[C@@H](O)[C@H](O)[C@H]8O)[C@H]7O[C@@H]7O[C@H](CO)[C@@H](O)[C@H](O)[C@H]7O)[C@H](O)[C@H]6O)CC[C@]5(C)[C@H]4CC[C@]3(C)[C@H]1[C@@H]2C	active
O=C(O)c1cc[c]([Hg][Cl])cc1	inactive
CCC1(c2ccccc2)C(=O)NC(=O)NC1=O	inactive
Cn1sc(Cl)cc1=O	inactive

Exercise: For this compound, state the assay outcome: O=S1(=O)N(CCN2CC=C(c3c[nH]c4cc(F)ccc34)CC2)c2cccc3c2N1CCC3
Key: active

Exercise: What call does the record list for CO[C@H]1[C@@H](O)C[C@H](O[C@H]2[C@@H](O)C[C@H](O[C@H]3[C@@H](O)C[C@H](O[C@H]4CC[C@@]5(C)[C@H](CC[C@@H]6[C@@H]5C[C@@H](O)[C@]5(C)[C@@H](C7=CC(=O)OC7)CC[C@]65O)C4)O[C@@H]3C)O[C@@H]2C)O[C@@H]1C ?
Key: inactive

###

procedure-text: qHTS Assay for Identifying Gametocytocidal Compounds (AID 743244);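 also: % is scaled to controls: 0 for no effect and ±100 for the full control effect; actives lower the fluorescent signal which means gametocytes are killed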
protocol-conditions: P. falciparum 3D7 stage III-V gametocytes, alamarBlue, 72 h; stronger effect = lower value
Records with an inconclusive call do not appear.
Property: max response; scope: individual molecules
Answer format: numeric, % implied, no suffix.

Below are worked cases with known answers.
molecule	output-unit	max response
CNc1ccc(C(=O)CC(O)CCC(C)C2OC(=O)CC(O)CC(=O)CC(O)CC(O)CC(O)CC(O)CC3(O)CC(O)C(C(=O)OC)C(CC(O[C@@H]4O[C@H](C)[C@@H](O)[C@H](N)[C@@H]4O)/C=C/C=C/C=C/C=C/C=C/C=C/C=C/C2C)O3)cc1 (some centres undefined)	%	22.8
CCC/C=C/C=C/C(=O)O[C@H]1/C(=C/C(=O)OC)C[C@H]2C[C@H]([C@@H](C)O)OC(=O)C[C@H](O)C[C@@H]3C[C@H](OC(C)=O)C(C)(C)[C@](O)(C[C@@H]4C/C(=C/C(=O)OC)C[C@H](/C=C/C(C)(C)[C@]1(O)O2)O4)O3	%	-10.9
NCC[C@H](O)C(=O)N[C@@H]1C[C@H](N)[C@@H](O[C@H]2O[C@H](CN)[C@@H](O)[C@H](O)[C@H]2N)[C@H](O[C@@H]2O[C@H](CO)[C@@H](O)[C@H]2O)[C@H]1O	%	16.1
C[C@]12CCC(=O)C=C1C=C[C@@H]1[C@@H]2CC[C@@]2(C)[C@H]1CC[C@@]2(O)CCC(=O)O	%	16.5
O=C(CS(=O)C(c1ccccc1)c1ccccc1)NO (centres undefined)	%	-0.968

// sample CNC(=O)Oc1ccccc1C(=O)Nc1ccccc1 , its max response was 8.96

Quick note, max response for CC(=O)OO landed at -9.86

Cc1cc(C)cc(C(=O)OC2C[C@H]3CC[C@@H](C2)N3C)c1 (some centres undefined) yielded max response of 23

###

procedure-text: Cell Viability - LYMP2-004 (AID 966);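 also: cells exposed to compound for 24 h; nearly all actives have a fitted effect of over 65% in size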
protocol-conditions: LYMP2-004 lymphoblastoid cell viability, qHTS; series mostly up to 92.2 µM
Records with an inconclusive call do not appear. Activity calls are given as the source filed them. Calls come from the whole dose curve; as a rule, active = well fitted cell-killing curve with a large enough effect; inconclusive = small, poorly fitted or top-dose-only effect, or effect the other way; inactive = no such curve, though single readings can be large or run the other way.
Bench note: report the call from label 1 for active, label 0 for inactive

Record excerpt, results attached:
>>> df
                                   compound  group_label
0  O=C1C2CC=CCC2C(=O)N1SC(Cl)(Cl)Cl (stereo unspecified)      label 1
1       COC1=CC(=O)O[C@@H](/C=C/c2ccccc2)C1      label 0
2                                  [O]=[Cd]      label 0

Exercise: Fill in: this test's call for COc1ccc2c(c1OC)C(=O)OC2C1c2cc3c(cc2CCN1C)OCO3 (stereo unspecified) is ___
Key: label 0

Exercise: Tell me the assay call for O=[N+]([O-])c1ccc(F)c([N+](=O)[O-])c1 please.
Key: label 0

Exercise: Can you look up the reported call for CCCCCl for me?
Key: label 0

Exercise: Please indicate how the test categorized O=C1CCO1 .
Key: label 0

Exercise: What was the test verdict on NNC(N)=O ?
Key: label 0

Exercise: Returns: the outcome recorded for ClC(Cl)(Cl)Cl in this assay.
Key: label 0

Exercise: Could you kindly confirm the outcome this assay logged for CCCCCCCCOC(=O)c1ccccc1C(=O)OCCCCCCCC ?
Key: label 0

Exercise: // return assay outcome for CCOC(=O)c1ccccc1C(=O)OCC
Key: label 0

Exercise: Please share the test call associated with Oc1cc(Cl)c(Cl)cc1Cl .
Key: label 0

Exercise: Assay result, entry [Cl-].[Cl-].[Hg+2] — outcome?
Key: label 1

Exercise: Query: recorded result category for O=C(O)C(Cl)(Cl)Cl in this test
Key: label 0

Exercise: Hello, I am checking results. What call was entered for O=Cc1ccco1 ?
Key: label 0

Exercise: How was O=CC=O classified in this test?
Key: label 0

###

procedure-text: qHTS Validation Assay to Find Inhibitors of Chronic Active B-Cell Receptor Signaling (AID 485345);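 also: 0% = untreated basal cells and 100% = 10 µM MG-132 proteasome inhibitor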
protocol-conditions: ABC-DLBCL cells, chronic BCR signaling reporter, CBG luciferase; series mostly up to 46.1 µM
Results filed as inconclusive are left out. Active and inactive are the calls of the source. The call rests on the fitted dose curve; in most records, active means well fitted curve in the direction sought with a large enough effect in the main read-out, with a control signal flat (not every such curve was filed as active); inconclusive means small, poorly fitted or top-dose-only effect, or effect the other way, or a change in a side signal; inactive means no such curve, though single readings can be large or run the other way.
metric-name: outcome

compound	metric-name	endpoint-result
O=C1C=CC(=O)C=C1	outcome	inactive
NC(=O)CI	outcome	inactive
NCCc1c[nH]c2ccc(C(N)=O)cc12	outcome	inactive
OC1CCCCC1N1CCC(c2ccccc2)CC1 (configuration not stated)	outcome	inactive

Short answer for C[N+]1(C)C2CCC1CC(OC(=O)c1c[nH]c3ccccc13)C2 (configuration not stated) : outcome was inactive

Noted for CC(N)Cc1c[nH]c2ccc(O)cc12 (configuration not stated) : its outcome reads inactive

The compound listed as O=[N+]([O-])c1cc(O)c(O)c([N+](=O)[O-])c1 has a reported outcome of inactive
